Below: a set of entries, each annotated with reported protein stability index.
B1: TRIM43 (parent)
chain: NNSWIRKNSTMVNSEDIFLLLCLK

Variants of: B1
PROCEDURE_TEXT: protein stability index of a GFP-peptide fusion (GPS, HEK-293T) (PSI 1-6); higher = more stable;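 note: lentivirally expressed fusions sorted by FACS into six bins by GFP to DsRed ratio, PSI derived from sequencing read proportions per bin multiplied by bin number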
COND: c terminus: a fixed tail appended
Hey, just send me the number, nothing else.

Below, each entry is followed by its recorded protein stability index result.
RESIDUE_CODES	protein stability index
NNSWIRKNSTMVNSKDIFLLLCLK	2.89
NNSWIRKNSTMTNSEDIFLLLCLK	4.1
NNSWIRKNSTMCNSEDIFLLLCLK	1.62

query: Reported protein stability index, variant NNSWIRKNSTMVNSEDIFLLLCLW : ____
result: 2.28

query: Reported protein stability index, variant NNSWIRKNSTMVISEDIFLLLCLK : ____
result: 2.37

query: Reported protein stability index, variant NNSWIRKNSTMENSEDIFLLLCLK : ____
result: 2.92

query: Reported protein stability index, variant NNSWHRKNSTMVNSEDIFLLLCLK : ____
result: 3.14

query: Reported protein stability index, variant NNSWKRKNSTMVNSEDIFLLLCLK : ____
result: 3.55

query: Reported protein stability index, variant NNSWIRKNSTMVNSEVIFLLLCLK : ____
result: 2.92

query: Reported protein stability index, variant NNSWIRKNSTMVNSEDIVLLLCLK : ____
result: 2.92

query: Reported protein stability index, variant NNSWIRKNSTMVNSEDLFLLLCLK : ____
result: 3.15

query: Reported protein stability index, variant NNSWIRHNSTMVNSEDIFLLLCLK : ____
result: 2.76

query: Reported protein stability index, variant NTSWIRKNSTMVNSEDIFLLLCLK : ____
result: 2.14

query: Reported protein stability index, variant NNSWIRKNSTMVTSEDIFLLLCLK : ____
result: 1.95

query: Reported protein stability index, variant NNSWIRKNSTMVNSEDIFLLMCLK : ____
result: 3.25

query: Reported protein stability index, variant NNSWIRKNSTMVNSEDIFLSLCLK : ____
result: 2.28

query: Reported protein stability index, variant NNSWIRKNTTMVNSEDIFLLLCLK : ____
result: 2.62

query: Reported protein stability index, variant ENSWIRKNSTMVNSEDIFLLLCLK : ____
result: 4.19

query: Reported protein stability index, variant NNSWQRKNSTMVNSEDIFLLLCLK : ____
result: 3.02

query: Reported protein stability index, variant NNSWIRKNSTMVNSEDPFLLLCLK : ____
result: 1.93

query: Reported protein stability index, variant NNSWIRKNSTMVNSEDIFLLVCLK : ____
result: 3.54

query: Reported protein stability index, variant NNSWIRKNSTMVNSEDIFLLLCLC : ____
result: 2.79
